Test system: Nucleic Acid
Assay: Binding affinity to calf thymus DNA assessed as melting temperature at 12.4 uM by thermal denaturation study
Assay type: nucleic-acid assay
Conditions: Bos taurus
Endpoint: Tm (°C)

- CCCCNC(=N)Nc1ccc2cc3ccc(NC(=N)NCCCC)cc3nc2c1: 86
- CCCCCNC(=N)Nc1ccc2cc3ccc(NC(=N)NCCCCC)cc3nc2c1.Cl.Cl.O: 88
- CCNC(=N)Nc1ccc2cc3ccc(NC(=N)NCC)cc3nc2c1.Cl.Cl.O: 84
- CCCNC(=N)Nc1ccc2cc3ccc(NC(=N)NCCC)cc3nc2c1: 85
- CCCCCCNC(=N)Nc1ccc2cc3ccc(NC(=N)NCCCCCC)cc3nc2c1.Cl.Cl.O: 89
